test system: 817829-284-R-J1-PDC complex spheroids, viability; experiment: Anticancer human tumor 817829-284-R-J1-PDC patient-derived colon adenocarcinoma cell line growth inhibition [GQUAD]; details: curve of first compound; second compound 1 µM;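 further: spheroids exposed to agents for 7 days before readout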

{"molecule": "C#Cc1c(F)ccc2cc(O)cc(-c3ncc4c(N5CC6CCC(C5)N6)nc(OCC56CCCN5CC(F)C6)nc4c3F)c12 (stereo not given) + Cc1cnc(CNC(=O)c2c(=O)c3ccc(N4CCCN(C)CC4)nc3n3c2sc2ccccc23)cn1", "IC50": "< 0.0316 µM"}
{"molecule": "O=c1[nH]cc(F)c(=O)[nH]1 + Cc1cnc(CNC(=O)c2c(=O)c3ccc(N4CCCN(C)CC4)nc3n3c2sc2ccccc23)cn1", "IC50": "< 0.0316 µM"}
{"molecule": "COc1ccc([C@@H](O)c2cc(-c3ncnc4cc(N5CCOCC5)ccc34)c(F)cc2Cl)nn1 + CN(C)c1ccc(Nc2c3ccc(NC(=O)CCN4CCCC4)cc3nc3cc(NC(=O)CCN4CCCC4)ccc23)cc1", "IC50": "8.58 µM"}
{"molecule": "Cc1cccc(N(C)C(=O)C2C(O)CCN2c2nc(C)cc(C(F)(F)F)c2C#N)c1 (stereo not given) + Cc1[nH]c2ccc(F)cc2c1-c1nc2c3cccnc3c3ncccc3c2[nH]1", "IC50": "> 10 µM"}
{"molecule": "CCc1c2c(nc3ccc(O)cc13)-c1cc3c(c(=O)n1C2)COC(=O)[C@]3(O)CC + Cc1cnc(CNC(=O)c2c(=O)c3ccc(N4CCCN(C)CC4)nc3n3c2sc2ccccc23)cn1", "IC50": "< 0.000999 µM"}

Where these numbers come from: PubChem BioAssay AID2060503
